- target-or-test-system: VIM-1 (Pseudomonas aeruginosa)
- Construct: made in house
- assay-name: β-lactamase inhibition, spectrophotometric assay of nitrocefin hydrolysis
- Type: biochemical
- condition-description: class B β-lactamase, 10 μM ZnSO4; 200 μM nitrocefin, 25° C., 2 hours; read-out: IC50 VIM-1
Exercise: state measured IC50 for each of the molecules provided.

Q: Return reported IC50; argument: `C[C@]1(COC(=O)NNC(=O)c2ccc(O)c(O)c2Cl)[C@H](C(=O)O)N2C(=O)C[C@H]2S1(=O)=O`
A: > 200 µM

Q: Lookup C[C@]1(/C=N/NC(=O)C2CCN(C(=O)c3ccc(O)c(O)c3Cl)C2)[C@H](C(=O)O)N2C(=O)C[C@H]2S1(=O)=O (stereo partly shown)
A: > 200 µM

Q: Lookup C[C@]1(Cn2ccnn2)[C@H](C(=O)O)N2C(=O)C[C@H]2S1(=O)=O [Tazobactam, reference compound]
A: > 200 µM

Q: Lookup `C[C@]1(/C=N/NC(=O)c2ccc(O)c(O)c2Cl)[C@H](C(=O)O)N2C(=O)C[C@H]2S1(=O)=O`
A: > 200 µM

Q: Lookup `C[C@]1(/C=N/NC(=O)CNC(=O)c2ccc(O)c(O)c2)[C@H](C(=O)O)N2C(=O)C[C@H]2S1(=O)=O`
A: > 200 µM

Q: Lookup NC(=O)[C@@H]1CC[C@@H]2CN1C(=O)N2OS(=O)(=O)O [Avibactam, reference compound]
A: > 200 µM

Q: Lookup `CN(/N=C/[C@@]1(C)[C@H](C(=O)O)N2C(=O)C[C@H]2S1(=O)=O)C(=O)c1ccc(O)c(O)c1Cl`
A: > 200 µM

###

- target-or-test-system: NDM-1 (Klebsiella pneumoniae, UniProt C7C422)
- Construct: made in house
- Sequence (C7C422 29-270, looked up, species assumed): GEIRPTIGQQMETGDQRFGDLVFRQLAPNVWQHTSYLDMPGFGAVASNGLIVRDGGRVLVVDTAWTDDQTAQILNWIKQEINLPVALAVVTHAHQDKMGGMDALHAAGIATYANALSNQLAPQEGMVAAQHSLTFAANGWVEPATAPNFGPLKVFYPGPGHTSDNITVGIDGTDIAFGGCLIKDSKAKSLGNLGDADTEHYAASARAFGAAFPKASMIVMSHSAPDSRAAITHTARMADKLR
- assay-name: β-lactamase inhibition, spectrophotometric assay of nitrocefin hydrolysis
- Assay type: biochemical
recorded-endpoint: IC50

Q: Find the measured IC50: item CC1(C)[C@H](C(=O)O)N2C(=O)C[C@H]2S1(=O)=O [Sulbactam, reference compound] , target or system NDM-1 (Klebsiella pneumoniae, UniProt C7C422).
A: > 200 µM

###

- Test system: S. aureus ATCC 29213
- assay-name: MIC determination, broth microdilution, ESKAPE panel
- Format: cell-based
- condition-description: Staphylococcus aureus, ATCC29213; iron-depleted cation-adjusted Mueller-Hinton broth, 2,2-dipyridyl 160 μM; 37° C., 18-20 hours; read-out: MIC S. aureus ATCC 29213
recorded-endpoint: MIC (µg/mL)
Respond numerically; units are µg/mL and should not be typed.

Q: Return reported MIC; argument: `COc1ccc(C(=O)N/N=C/[C@@]2(C)[C@H](C(=O)O)N3C(=O)C[C@H]3S2(=O)=O)cc1`
A: 128

Q: Lookup C[C@@H](O)[C@H]1C(=O)N2C(C(=O)O)=C(S[C@@H]3CN[C@H](C(=O)N(C)C)C3)[C@H](C)[C@H]12 [Meropenem, reference compound]
A: 0.125

Q: Lookup `C[C@]1(COC(=O)c2ccc(O)c(O)c2Cl)[C@H](C(=O)O)N2C(=O)C[C@H]2S1(=O)=O`
A: 16

Q: Lookup `C[C@]1(/C=N/NC(=O)c2ccc(O)c(O)c2)[C@H](C(=O)O)N2C(=O)C[C@H]2S1(=O)=O`
A: 128

Q: Lookup `C[C@]1(/C=N/NC(=O)Cc2ccc(O)c(O)c2)[C@H](C(=O)O)N2C(=O)C[C@H]2S1(=O)=O`
A: 32

Q: Lookup C[C@]1(/C=N/NC(=O)C2CCN(C(=O)c3ccc(O)c(O)c3Cl)C2)[C@H](C(=O)O)N2C(=O)C[C@H]2S1(=O)=O (stereo partly shown)
A: 128

Q: Lookup `C[C@]1(/C=N/NC(=O)C2CCN(C(=O)c3ccc(O)c(O)c3Cl)CC2)[C@H](C(=O)O)N2C(=O)C[C@H]2S1(=O)=O`
A: 128

Q: Lookup `C[C@]1(/C=N/NC(=O)CCNC(=O)c2ccc(O)c(O)c2)[C@H](C(=O)O)N2C(=O)C[C@H]2S1(=O)=O`
A: 128

Q: Lookup `C[C@]1(/C=N/NC(=O)CNC(=O)c2ccc(O)c(O)c2)[C@H](C(=O)O)N2C(=O)C[C@H]2S1(=O)=O`
A: 64

Q: Lookup `C[C@H](NC(=O)c1ccc(O)c(O)c1Cl)C(=O)N/N=C/[C@@]1(C)[C@H](C(=O)O)N2C(=O)C[C@H]2S1(=O)=O`
A: 128
